System: MCF-7
Test: MTT cytotoxicity assay, MCF-7
Format: cell-based
Conditions: IC50 MRC-5 / IC50 MCF-7
# Selectivity index, MCF-7 per record follows

compound | Selectivity index, MCF-7
CCCCCCNC(=O)Nc1c(C#N)c2n(c1C(=O)Nc1ccc(Cl)cc1)CCC2 [Compound 16c] | 0.02
CS(=O)(=O)CCNCc1ccc(-c2ccc3ncnc(Nc4ccc(OCc5cccc(F)c5)c(Cl)c4)c3c2)o1 [Lapatinib, lapatinib, reference compound] | 1.00
CCCCCCNC(=O)Nc1c(C#N)c2n(c1C(=O)Nc1ccc(C)cc1)CCC2 [Compound 16b] | 2.26
Cc1ccc(NC(=O)c2c(NC(=S)Nc3cccc4ccccc34)c(C#N)c3n2CCC3)cc1 [Compound 20b] | 0.40
